Each record here notes measured TGI.
# Tested on: HOP-62 NSCLC
# protocol-summary: NCI tumour cell line growth inhibition, 48 h
The reply should contain only the number, in µM.

See these solved cases before continuing.
COC1C(=[N+]=[N-])C(=O)NC(=O)N1C1OC(COC(c2ccccc2)(c2ccccc2)c2ccccc2)C(O)C1O (stereo unspecified)	41.1
COc1ccc2c(c1OC)C(Br)CCC(Br)(Br)C2=O (stereo unspecified)	36.7
CCN(Cc1ccc(F)cc1F)c1ccc(CO)c(Cl)c1	20.2

Now consider the entry below.
Entry COC1=C(OC)C(=O)c2cc(SC)c(=O)c(SC)cc2C1=O : reported TGI = ?
31.2

---

Items are presented alongside their recorded TGI.
# Tested on: DU-145 prostate
# protocol-summary: NCI tumour cell line growth inhibition, 48 h

The following molecules have reported results that may help.
O=C1c2[nH]cc(CN[C@@H]3CCCN3)c2C(=O)c2c1c(O)c1ccccc1c2O	2.04 µM
Cc1ccc(-n2nnc3c(NNc4ccccc4)n[nH]c(=O)c32)cc1	> 100 µM

// query TGI value for entry O=C(Nc1cccc(NS(=O)(=O)c2ccc(F)cc2)c1)c1ccc(-c2ccccc2)cc1
> 100 µM

Look at this molecule and give its reported TGI. CC(C)SC1SCC2C(=O)N(C)C3(CC3C)C(=O)OCC(NC(=O)c3nc4ccccc4cc3O)C(=O)NC(C)C(=O)N(C)C1C(=O)N(C)C1(CC1C)C(=O)OCC(NC(=O)c1nc3ccccc3cc1O)C(=O)NC(C)C(=O)N2C (centres undefined)
> 100 µM

---

# Tested on: NCI-H23 lung
# protocol-summary: NCI tumour cell line growth inhibition, 48 h
Where a SMILES comes first, the peptide text is derived from it. The star is where a group is joined. Boc = CC(C)(C)OC(=O)*
assay-metric: TGI

COc1c2c(c(OC)c3c(=O)cc(C/C(=N/NC(=O)C[n+]4ccccc4)C(=O)Nc4cc(C)ccc4C)oc13)OCO2	> 100 µM

Item under review: COC(=O)C(Cc1c[nH]c2ccccc12)NC(=O)C(Cc1c[nH]c2ccccc12)NC(=O)C(Cc1c[nH]c2ccccc12)NC(=O)C(Cc1c[nH]c2ccccc12)NC(=O)C(Cc1c[nH]c2ccccc12)NC(=O)OC(C)(C)C (stereo not drawn) (Boc-WWWWW-OMe; configuration not given here) . Reported TGI?
> 100 µM

Can you look up the measured TGI of COC(=O)c1ccc(-c2nc3cc(F)c(F)cc3nc2C#N)cc1 for me?
17 µM

---

Below, each of the compounds is paired with its reported TGI value.
# Tested on: A549 NSCLC
# protocol-summary: NCI tumour cell line growth inhibition, 48 h

Guide cases for TGI, answers given:
Nc1nc([O-])c([I+]c2ccccc2)c(=O)[nH]1	> 100 µM
CC1=C2C(=CC(C)(CO)C2O)C(=O)C(C)(O)C12CC2 (stereo not given)	0.0902 µM
Cc1ccc(/C(O)=C/c2nc3ccccc3nc2NC23CC4CC(CC(C4)C2)C3)cc1	> 10 µM
CCCCn1c(C)c(C)c2c1NN=C(C#N)S2(=O)=O	> 100 µM

Missing value: TGI, A549 NSCLC, entry CCOC(=O)/C(=C\NC[C@@H](C)O)c1nc2ccccc2[nH]1 . Fill in?
> 100 µM

Param readout = TGI; param system = A549 NSCLC; param query = N#CC12CCC(O)C(CC1)C2=O (stereo not given) ; response: value
> 100 µM

Requested read-out TGI, target or system A549 NSCLC, entry c1ccc2c(c1)Sc1ccccc1N2CCCN1c2ccccc2Sc2ccccc21
> 100 µM

Lab note: need TGI with A549 NSCLC for entry CN(C)CCN1N=Nc2cccc3cccc1c23 , please look it up.
> 100 µM

Could you share what TGI was measured for COc1ccc(OC)c2sc(N3C(=O)/C(=C/c4ccc(N(C)C)cc4)N=C3c3ccccc3)nc12 , tested on A549 NSCLC?
> 100 µM

# value lookup — system A549 NSCLC, readout TGI, item COC(=O)c1ccc(-c2nc3cc(F)c(F)cc3nc2C#N)cc1
25.6 µM

# credit: PubChem BioAssay (NCI)
